- targetEntity: hM4 mAChR (Homo sapiens)
- Construct: expressed in transfected cells; host or cells: CHO-K1 (membrane preparation)
- Sequence (P08173 whole entry): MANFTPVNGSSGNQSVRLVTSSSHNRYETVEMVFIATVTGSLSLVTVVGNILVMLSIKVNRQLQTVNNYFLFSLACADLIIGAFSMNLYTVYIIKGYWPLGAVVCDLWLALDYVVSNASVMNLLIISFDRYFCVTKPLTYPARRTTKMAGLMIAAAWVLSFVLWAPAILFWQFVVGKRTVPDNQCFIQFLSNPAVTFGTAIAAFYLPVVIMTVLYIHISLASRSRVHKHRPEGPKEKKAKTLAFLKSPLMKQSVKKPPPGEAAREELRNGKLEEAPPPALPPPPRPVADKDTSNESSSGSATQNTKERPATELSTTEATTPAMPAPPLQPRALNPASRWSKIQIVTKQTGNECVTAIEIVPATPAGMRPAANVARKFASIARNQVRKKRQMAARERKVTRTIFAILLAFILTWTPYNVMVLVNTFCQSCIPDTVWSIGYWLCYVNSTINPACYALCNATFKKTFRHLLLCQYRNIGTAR
- testProtocol: [3H]NMS inhibition radioligand binding, hM4 in CHO-K1 cell membranes
- details: [3H]NMS, CHO-K1 cell membranes; mean ± S.E.M.
Reported values of pKi hM4 for individual entries

{"compound": "C[N+](C)(C)C[C@@H]1CO[C@@H](c2ccc(Sc3ccccc3)cc2)CO1.[I-] (relative stereo) [15b]", "pKi hM4": "5.14 ± 0.01"}
{"compound": "C[N+](C)(C)C[C@@H]1COC[C@@H](c2ccc(Sc3ccccc3)cc2)O1.[I-] (relative stereo)", "pKi hM4": "5.70 ± 0.02"}
{"compound": "C[N+](C)(C)C[C@@H]1CO[C@@H](c2ccccc2)[C@@H](c2ccccc2)O1.[I-] (relative stereo) [18c]", "pKi hM4": "6.40 ± 0.06"}
{"compound": "C[N+](C)(C)C[C@@H]1CO[C@@H](c2ccccc2)CO1.[I-] (relative stereo)", "pKi hM4": "<5"}
{"compound": "CN(C)C[C@@H]1COC[C@](c2ccccc2)(C2CCCCC2)O1 [(2R,6R)-(+)-33b]", "pKi hM4": "7.01 ± 0.08"}
{"compound": "CN(C)C[C@H]1COC[C@@](c2ccccc2)(C2CCCCC2)O1 [(2S,6S)-(−)-33b]", "pKi hM4": "9.09 ± 0.15"}
{"compound": "C[N+](C)(C)C[C@@H]1CO[C@H](c2ccccc2)CO1.[I-] (relative stereo)", "pKi hM4": "5.10 ± 0.07"}
{"compound": "C[N+](C)(C)C[C@@H]1CO[C@@H](c2ccccc2)[C@H](c2ccccc2)O1.[I-] (relative stereo) [18a]", "pKi hM4": "5.25 ± 0.08"}
{"compound": "C[N+](C)(C)C[C@@H]1CO[C@@H](c2ccc([S+]([O-])c3ccccc3)cc2)CO1.[I-] (relative stereo) [16b]", "pKi hM4": "5.42 ± 0.02"}
{"compound": "C[N+](C)(C)C[C@@H]1COC[C@@H](c2ccc(S(=O)(=O)c3ccccc3)cc2)O1.[I-] (relative stereo)", "pKi hM4": "5.20 ± 0.07"}
{"compound": "C[N+](C)(C)C[C@@H]1CO[C@@](c2ccccc2)(C2CCCCC2)CO1.[I-] (relative stereo) [11a]", "pKi hM4": "7.15 ± 0.09"}
{"compound": "C[N+](C)(C)C[C@@H]1COC[C@@H](c2ccc(-c3ccccc3)cc2)O1.[I-] (relative stereo)", "pKi hM4": "<5"}
